Listed here: items and their measured Kd.
- Target or test system: T1, Monomeric cynomolgus PD-L1 (Acro Biosciences PD1-C52H4) (cynomolgus, UniProt Q9NZQ7 19-238 (human entry))
- T1 construct: also called cynomolgus monomeric PD-L1
- T1 sequence (Q9NZQ7 other isoform, or with tags, fused parts or gaps limits assumed): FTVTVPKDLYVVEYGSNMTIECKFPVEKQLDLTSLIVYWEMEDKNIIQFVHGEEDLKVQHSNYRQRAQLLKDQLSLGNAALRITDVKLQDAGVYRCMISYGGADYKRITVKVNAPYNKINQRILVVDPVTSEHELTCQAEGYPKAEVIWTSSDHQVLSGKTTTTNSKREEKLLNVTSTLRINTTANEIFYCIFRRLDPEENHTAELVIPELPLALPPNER
- Experimental protocol: SPR Biacore T200, Fcab captured on protein A chip, monomeric antigen in flow, 1:1 fit
Expressed in nM, but write only the number.

| Binder | Uom | Kd |
| --- | --- | --- |
| Fcab FS17-33-116 (designed binder) TCPPCPAPELLGGPSVFLFPPKPKDTLMISRTPEVTCVVVDVSHEDPEVKFNWYVDGVEVHNAKTKPREEQYNSTYRVVSVLTVLHQDWLNGKEYKCKVSNKALPAPIEKTISKAKGQPREPQVYTLPPSRDESGYWVSLTCLVKGFYPSDIVVEWESNGEPQYWAKTTPPVLDSDGSFFLYSKLTVSNWRWQMDDFSCSVMHEALHNHYTQKSLSLSPGK | nM | 0.42 |
| Fcab FS17-33-288 (designed binder) TCPPCPAPELLGGPSVFLFPPKPKDTLMISRTPEVTCVVVDVSHEDPEVKFNWYVDGVEVHNAKTKPREEQYNSTYRVVSVLTVLHQDWLNGKEYKCKVSNKALPAPIEKTISKAKGQPREPQVYTLPPSRDESGYWVSLTCLVKGFYPSDIVVEWESNGEPQYWAKTTPPVLDSDGSFFLYSKLTVSNWRWQIDDFSCSVMHEALHNHYTQKSLSLSPGK | nM | 2.1 |

Here's the next entry for you.
Reported Kd for Fcab FS17-33-296 (designed binder) TCPPCPAPELLGGPSVFLFPPKPKDTLMISRTPEVTCVVVDVSHEDPEVKFNWYVDGVEVHNAKTKPREEQYNSTYRVVSVLTVLHQDWLNGKEYKCKVSNKALPAPIEKTISKAKGQPREPQVYTLPPSRDESGYWVSLTCLVKGFYPSDIVVEWESNGEPQYWAKTTPPVLDSDGSFFLYSKLTVSNWRWQVDDFSCSVMHEALHNHYTQKSLSLSPGK : what is it?
0.87
